Reference source for all entries: patent US11230526B1

Below is a list of entries, each paired with its recorded log10 EC50 value.
system-under-test: Human GPR120 short form (Homo sapiens, UniProt Q5NUL3)
Construct: expressed in transfected cells
Sequence (Q5NUL3 whole entry): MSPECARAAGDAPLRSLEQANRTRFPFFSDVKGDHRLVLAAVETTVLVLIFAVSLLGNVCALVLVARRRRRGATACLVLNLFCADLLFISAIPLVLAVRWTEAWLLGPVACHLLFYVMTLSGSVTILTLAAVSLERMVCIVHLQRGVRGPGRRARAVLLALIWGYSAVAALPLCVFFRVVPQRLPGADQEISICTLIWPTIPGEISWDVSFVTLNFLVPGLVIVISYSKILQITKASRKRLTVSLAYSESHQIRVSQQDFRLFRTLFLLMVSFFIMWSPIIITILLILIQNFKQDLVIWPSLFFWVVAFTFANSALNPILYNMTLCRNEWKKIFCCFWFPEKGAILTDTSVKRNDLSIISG
experiment: Human GPR120 calcium flux assay, Procedure Calcium B (4200 cells/well)
Assay type: cell-based
measured-metric: log10 EC50 (log10 of the value in nM)

[[record]]
molecule = "Cc1c(CCC(=O)O)ccc(OCC2=C(c3cccc(F)c3)CC(F)(F)C2)c1C [Compound 192]"
measured_metric = "log10 EC50"
reported_result = 1.79

[[record]]
molecule = "O=C(O)CCc1ccc(OCC2=C(C3CCCC3)CCC2)cc1Br [Compound 421]"
measured_metric = "log10 EC50"
reported_result = 2.35

[[record]]
molecule = "Cc1cc(OCC2=C(c3ccc(Cl)cc3)CCC2)ccc1CCC(=O)O [Compound 131]"
measured_metric = "log10 EC50"
reported_result = 2.07

[[record]]
molecule = "Cc1ccc(C2=C(COc3ccc(CCC(=O)O)cc3C)CC(F)(F)CC2)s1 [Compound 561]"
measured_metric = "log10 EC50"
reported_result = 1.85

[[record]]
molecule = "Cc1ccc(C2=C(COc3ccc(CCC(=O)O)cc3)CCC2)cc1O [Compound 234]"
measured_metric = "log10 EC50"
reported_result = 3.06

[[record]]
molecule = "Cc1cccc(C2=C(COc3ccc(CCC(=O)O)c(C(F)(F)F)c3)CCC2)c1 [Compound 312]"
measured_metric = "log10 EC50"
reported_result = 2.79

[[record]]
molecule = "Cc1ncc(C2=C(COc3ccc(CCC(=O)O)cc3C)CC(F)(F)C2)s1 [Compound 199]"
measured_metric = "log10 EC50"
reported_result = 2.32

[[record]]
molecule = "O=C(O)CCc1ccc(OCC2=C(c3ccc(Cl)c(F)c3)CCC2)cc1Cl [Compound 274]"
measured_metric = "log10 EC50"
reported_result = 2.71

[[record]]
molecule = "O=C(O)CCc1ccc(OCC2=C(c3ccc(Br)cc3)CCC2)cc1C(F)(F)F [Compound 269]"
measured_metric = "log10 EC50"
reported_result = 3.35

[[record]]
molecule = "Cc1c(CCC(=O)O)ccc(OCC2=C(c3ccccn3)CCCC2)c1C [Compound 490]"
measured_metric = "log10 EC50"
reported_result = 2.87

[[record]]
molecule = "Cc1c(CCC(=O)O)ccc(OCC2=C(c3cccc(Cl)c3)CCC2)c1C [Compound 58]"
measured_metric = "log10 EC50"
reported_result = 2.20

[[record]]
molecule = "O=C(O)CCc1ccc(OCC2=C(Cc3cncs3)CCCC2)cc1C(F)(F)F [Compound 596]"
measured_metric = "log10 EC50"
reported_result = 3.37

[[record]]
molecule = "Cc1ccc(C2=C(COc3ccc(CCC(=O)O)c(C(F)(F)F)c3)CCC2)c(F)c1 [Compound 283]"
measured_metric = "log10 EC50"
reported_result = 2.37

[[record]]
molecule = "O=C(O)CCc1ccc(OCC2=C(c3ccc(F)cc3)CCC2)cc1Cl [Compound 260]"
measured_metric = "log10 EC50"
reported_result = 2.73

[[record]]
molecule = "O=C(O)CCc1cc(Cl)c(OCC2=C(c3ccc(F)cc3)CCC2)c(Cl)c1 [Compound 235]"
measured_metric = "log10 EC50"
reported_result = 2.82

[[record]]
molecule = "Cc1ccc(C2=C(COc3c(F)cc(CCC(=O)O)cc3F)CCCC2)cc1F [Compound 493]"
measured_metric = "log10 EC50"
reported_result = 1.57

[[record]]
molecule = "C#Cc1cc(OCC2=C(C3CCCC3)CCC2)ccc1CCC(=O)O [Compound 454]"
measured_metric = "log10 EC50"
reported_result = 3.35

[[record]]
molecule = "Cc1cc(OCC2=C(c3cc(Cl)ccc3F)CCC2)c(F)cc1CCC(=O)O [Compound 339]"
measured_metric = "log10 EC50"
reported_result = 2.90

[[record]]
molecule = "O=C(O)CCc1ccc(OCC2=C(C3CCC(F)(F)CC3)CCC2)cc1 [Compound 412]"
measured_metric = "log10 EC50"
reported_result = 3.67

[[record]]
molecule = "CC(C)CC1=C(COc2ccc(CCC(=O)O)c(C(F)(F)F)c2)CCCC1 [Compound 579]"
measured_metric = "log10 EC50"
reported_result = 2.77

